Tested on: R275C/beta1
EXPERIMENT DESCRIPTION: modulators of BK channel variants, profiling panel, selectivity assay, cell-based, U2OS BacMam, thallium flux, beta subunits (AID 1259406);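 further: initial slope of Thallos dye fluorescence rise after thallium is added; log ratio against the mean of 0.3% DMSO vehicle wells on the same plate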
CONDITION INFO: at 30 µM
Strictly below -0.01 in log fold change Tl+ flux: true (1). Otherwise: false (0).

smiles_entry=CO[C@H]1O[C@@H]2O[C@@]3(C)CC[C@H]4[C@H](C)CC[C@@H]([C@H]1C)[C@@]24OO3 assigned_category="true (1)"
smiles_entry=CCOC(=O)c1c[nH]n2c(=O)c3c(nc12)CCC3 assigned_category="false (0)"
smiles_entry=CC(C)c1ccc2c(c1)c(SC(C)(C)C)c(CC(C)(C)C(=O)O)n2Cc1ccc(Cl)cc1 assigned_category="false (0)"
smiles_entry=C[C@]12CC3CC(N)(C1)C[C@@](C)(C3)C2 assigned_category="true (1)"
smiles_entry=COC(=O)c1sc(-c2ccc(Cl)cc2)cc1NC(=O)c1ccc2nsnc2c1 assigned_category="false (0)"
